tested on: Candida albicans (ATCC 90029); test: Minimum inhibitory concentration (MIC) assay, Example 33; type: cell-based; conditions: n = 1
metric: MIC Candida albicans

Completed entries (count: 2):
1) CCCCCCCCCCCCOC(=O)C(C)N(C)C (stereo not drawn) [Nex-46]	>12.5 mg/mL
2) C[C@@H]1[C@H](O)[C@@H](C)/C=C/C=C/C=C/C=C/C=C/C=C/C=C/[C@H](O[C@@H]2O[C@H](C)[C@@H](O)[C@H](N)[C@@H]2O)C[C@@H]2O[C@](O)(C[C@@H](O)C[C@@H](O)[C@H](O)CC[C@@H](O)C[C@@H](O)CC(=O)O[C@H]1C)C[C@H](O)[C@H]2C(=O)O [Amphotericin B, reference compound]	0.0005 mg/mL

Query block: Lab request: please report MIC Candida albicans under test system Candida albicans (ATCC 90029) for CCCCCCCCCCCCOC(=O)C(C)N(C)C.CCCCCCCCCCCCOC(=O)C(C)N(C)C.O=S(=O)(O)c1cccc2c(S(=O)(=O)O)cccc12 (stereo not drawn)
Result block: >12.5 mg/mL

Query block: API: value(readout=MIC Candida albicans, system=Candida albicans (ATCC 90029)) for record CCCCCCCCCCCCOC(=O)[C@@H](C)N(C)C.Cl
Result block: >12.5 mg/mL

Query block: # get_value(readout= MIC Candida albicans, system= Candida albicans (ATCC 90029)) for CCCCCCCCCCCCOC(=O)[C@H](C)N(C)C.Cl
Result block: >12.5 mg/mL

Query block: Kindly state the measured MIC Candida albicans obtained for CCCCCCCCCCCCOC(=O)C(C)N(C)C (stereo not drawn) [Nex-30] with Candida albicans (ATCC 90029).
Result block: >12.5 mg/mL

====

test system: Candida albicans (ATCC 90029); assay: Minimum inhibitory concentration (MIC) assay, Example 33; type: cell-based; conditions: Candida albicans, ATCC90029, read-out: MIC Candida albicans, n = 1
Where a name gives a salt, the structure may show the parent alone.
metric: MIC (µg/mL)
Unit µg/mL implied. Number only.

Query block: Reported MIC for CCCCCCCCCCCCOC(=O)CN(C)C [Nex-52, hydrochloride] : what is it?
Result block: 50

Query block: What measured MIC goes with CCCCCCCCCCCCOC(=O)C(Cc1ccccc1)N(C)C (centres unmarked) [Nex-54, hydrochloride] ?
Result block: 6250

Query block: Fill in: MIC of CCCCCCCCCCOC(=O)C(C)N(C)C (centres unmarked) [Nex-68, hydrochloride] is ___
Result block: 390

====

Examples of molecules with documented Viable counts, Candida albicans time kill study follow.
system: Candida albicans (ATCC 90029); experiment: Time kill study, Example 33 (0 to 5 min); format: cell-based; details: 1×MIC, time 0
Counter-ions that a name gives are not always drawn.
Please respond with the number in Log10 CFU/mL and leave the unit unwritten.

1) CCCCCCCCCCCCOC(=O)C(Cc1ccccc1)N(C)C (centres unmarked) [Nex-54, hydrochloride]	5.56
2) CCCCCCCCCCCCOC(=O)C(C)NC.Cl (centres unmarked)	5.3
3) CCCCCCCCCCCOC(=O)C(C)N(C)C (centres unmarked) [Nex-67, hydrochloride]	5.58
4) CCCCCCCCCCCCOC(=O)CN(C)C [Nex-52, hydrochloride]	5.24
5) CCCCCCCCCCCCOC(=O)C(C)NCCN(CC)CC.Cl (centres unmarked)	5.12

Query block: Give its Viable counts, Candida albicans time kill study value. Item: CCCCCCCCOC(=O)C(C)N(C)C (centres unmarked) [Nex-70, hydrochloride]
Result block: 5.55

Query block: So what does the record say about Viable counts, Candida albicans time kill study for CCCCCCCCCCOC(=O)C(C)N(C)C (centres unmarked) [Nex-68, hydrochloride] ?
Result block: 5.47

Query block: Entry CCCCCCCCCCCCOC(=O)C(C)NCCO.Cl (centres unmarked) has what Viable counts, Candida albicans time kill study?
Result block: 5.23
